Origin of measurements: ChEMBL document CHEMBL5338751

# EXPERIMENT_SUMMARY: Metabolic stability in mouse liver microsomes assessed as parent compound remaining incubated for 1 hr by LC-MS analysis
# Format: ADME, Microsome
# STUDY_CONDITIONS: read-out: Stability
Threshold 60%: remaining at 1 h strictly smaller gives met, otherwise not met.

Solved cases below.
CHEM_SMILES: O=C(O)Cc1ccc(-c2ccc(OCc3c(-c4c(Cl)cccc4Cl)noc3C3CC3)cc2)cc1
LABEL: not met
--
CHEM_SMILES: CC(C)c1onc(-c2c(Cl)cccc2Cl)c1COc1ccc(-c2cccc(C3(C(=O)O)CC3)c2)cc1
LABEL: met
--
CHEM_SMILES: O=C(O)C1(c2cccc(-c3ccc(OCc4c(-c5c(Cl)cccc5Cl)noc4C4CC4)cc3)c2)CC1
LABEL: not met
--
CHEM_SMILES: O=C(O)CCc1ccc(-c2ccc(OCc3c(-c4c(Cl)cccc4Cl)noc3C3CC3)cc2)cc1
LABEL: met

// switching to the query compound
Task item: Criterion: remaining at 1 h strictly below 60%. Is it met by `O=C(O)COc1ccc(-c2ccc(OCc3c(-c4c(Cl)cccc4Cl)noc3C3CC3)cc2)cc1` ?
Reply: met

----------
# MEASUREMENT_TARGET: Peroxisome proliferator-activated receptor gamma (Homo sapiens, UniProt P37231)
# Sequence (P37231 whole entry): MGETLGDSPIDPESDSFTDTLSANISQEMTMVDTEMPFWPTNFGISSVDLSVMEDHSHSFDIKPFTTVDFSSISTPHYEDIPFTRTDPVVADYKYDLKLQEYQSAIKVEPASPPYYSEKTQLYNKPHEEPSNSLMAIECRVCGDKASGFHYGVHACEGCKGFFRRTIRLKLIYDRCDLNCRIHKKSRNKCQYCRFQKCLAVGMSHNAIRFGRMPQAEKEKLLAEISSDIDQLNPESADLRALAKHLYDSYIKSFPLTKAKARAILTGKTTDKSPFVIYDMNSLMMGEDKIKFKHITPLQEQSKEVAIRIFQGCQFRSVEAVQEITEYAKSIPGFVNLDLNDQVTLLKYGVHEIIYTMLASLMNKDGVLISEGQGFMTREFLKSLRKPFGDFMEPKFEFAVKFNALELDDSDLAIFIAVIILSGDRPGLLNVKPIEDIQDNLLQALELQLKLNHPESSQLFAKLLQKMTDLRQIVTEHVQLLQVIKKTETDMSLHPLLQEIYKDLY
# EXPERIMENT_SUMMARY: Inhibition of PPARgamma (unknown origin) transfected in HEK293 cells incubated for 18 hrs in presence of rosiglitazone by dual luciferase reporter assay
pIC50: −log10 of the molar value.
This section presents compounds with their documented pIC50 values.

CHEM_SMILES: CCc1c(-c2ccccc2)c(-c2ccccc2)nn1-c1ccccc1-c1cccc(OCC(=O)O)c1
pIC50: < 5.00

With those in mind, consider the next compound.
Task item: Look up pIC50: `O=C(O)C1(c2cccc(-c3ccc(OCc4c(-c5c(Cl)cccc5Cl)noc4C4CC4)cc3)c2)CC1`
Reply: < 5.00

----------
# MEASUREMENT_TARGET: Fatty acid-binding protein, heart (Homo sapiens, UniProt P05413)
# Sequence (P05413 whole entry): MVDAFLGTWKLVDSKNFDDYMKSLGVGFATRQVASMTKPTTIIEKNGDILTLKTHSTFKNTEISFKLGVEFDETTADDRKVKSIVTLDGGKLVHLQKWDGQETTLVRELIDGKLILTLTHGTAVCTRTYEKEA
TEST_READOUT: IC50

Task item: Value lookup for IC50; key = `O=C(O)C1(c2cccc(-c3ccc(OCc4c(-c5c(Cl)cccc5Cl)noc4C4CC4)cc3)c2)CC1`
Reply: > 30 µM

----------
# MEASUREMENT_TARGET: Androgen receptor (Homo sapiens)
# Sequence (P10275 whole entry, the tested form may be a part): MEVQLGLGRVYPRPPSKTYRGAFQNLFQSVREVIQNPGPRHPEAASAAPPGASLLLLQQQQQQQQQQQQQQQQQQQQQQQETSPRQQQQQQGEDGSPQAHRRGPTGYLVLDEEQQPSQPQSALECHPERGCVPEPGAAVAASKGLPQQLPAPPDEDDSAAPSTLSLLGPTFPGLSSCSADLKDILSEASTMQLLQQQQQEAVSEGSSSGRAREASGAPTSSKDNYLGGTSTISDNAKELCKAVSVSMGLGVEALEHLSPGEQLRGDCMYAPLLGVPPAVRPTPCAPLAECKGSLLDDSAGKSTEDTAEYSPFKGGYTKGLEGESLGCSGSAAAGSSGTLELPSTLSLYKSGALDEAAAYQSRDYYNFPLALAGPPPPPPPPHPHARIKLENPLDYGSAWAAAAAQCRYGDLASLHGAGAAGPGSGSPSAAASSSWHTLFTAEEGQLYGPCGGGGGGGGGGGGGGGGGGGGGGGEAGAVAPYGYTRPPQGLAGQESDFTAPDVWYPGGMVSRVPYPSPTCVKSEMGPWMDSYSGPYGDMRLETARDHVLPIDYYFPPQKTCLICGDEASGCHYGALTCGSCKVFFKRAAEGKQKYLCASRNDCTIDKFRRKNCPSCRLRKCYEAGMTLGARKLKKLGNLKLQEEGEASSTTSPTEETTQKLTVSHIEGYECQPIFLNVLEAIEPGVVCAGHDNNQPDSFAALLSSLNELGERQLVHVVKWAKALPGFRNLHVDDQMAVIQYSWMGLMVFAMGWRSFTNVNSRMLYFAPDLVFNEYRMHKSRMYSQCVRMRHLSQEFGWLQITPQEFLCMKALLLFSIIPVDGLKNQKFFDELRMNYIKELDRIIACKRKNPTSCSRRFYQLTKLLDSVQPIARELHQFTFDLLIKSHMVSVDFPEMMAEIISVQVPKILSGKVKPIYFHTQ
# EXPERIMENT_SUMMARY: Activation of Gal-DBD and NHRLBD fused AR (unknown origin) transfected in African green monkey CV-1 cells by luciferase reporter assay
TEST_READOUT: EC50

CHEM_SMILES: O=C(O)C1(c2cccc(-c3ccc(OCc4c(-c5c(Cl)cccc5Cl)noc4C4CC4)cc3)c2)CC1
EC50: > 10 µM

Here's the next entry for you.
Task item: Please report the recorded EC50 for `O=C(O)Cc1ccc(-c2ccc(OCc3c(-c4c(Cl)cccc4Cl)noc3C3CC3)cc2)cc1` .
Reply: > 10 µM
